Target: T1, recombinant monomeric human TIGIT-His (human, UniProt Q495A1 22-141)
T1 construct: also called hTIGIT; not shown: His tag
T1 sequence: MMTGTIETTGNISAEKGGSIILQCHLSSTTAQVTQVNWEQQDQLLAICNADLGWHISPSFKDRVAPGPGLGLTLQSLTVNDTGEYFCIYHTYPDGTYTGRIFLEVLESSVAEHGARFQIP
Experiment: MSD-SET solution equilibrium titration, monomeric antigen
Would you mind telling me the reported log10 Kd of each entry?
Form field - Quantity: Kd; Unit: nM; Scale: log10

**Query** State the recorded log10 Kd for this entry: MAB17-IgG4 (antibody, V domains shown) VH: QVQLVQSGAEVKKPGASVKVSCKASGYTFPAYYIHWVRQAPGQGLEWMGIINPSLGLTSYARKFQGRVTMTRDTSTSTVYMELSSLRSEDTAVYYCARGGRTTWIGALDIWGQGTMVTVSS VL: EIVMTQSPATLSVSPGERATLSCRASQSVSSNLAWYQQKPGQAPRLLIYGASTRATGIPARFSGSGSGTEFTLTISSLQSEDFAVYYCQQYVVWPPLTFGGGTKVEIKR
**Result** -1.39

**Query** Given MAB21-IgG4 (antibody, V domains shown) VH: QVQLVQSGAEVKKPGASVKVSCKASGYTFTSHYMGWVRQAPGQGLEWMGIINPSMGATSYTQKFRGRVTMTRDTSTSTVYMELSSLRSEDTAVYYCARLHVSGSYYPAYLDYWGQGTMVTVSS VL: EIVMTQSPATLSVSPGERATLSCRASQSVSSNLAWYQQKPGQAPRHLIYGASTRATGIPARFSGSGSGTEFTLTISSLQSEDFAVYYCQQYIVFPWTFGGGTKVEIKR , state its recorded log10 Kd.
**Result** -1.10

**Query** What measured log10 Kd goes with MAB15-IgG4 (antibody, V domains shown) VH: QVQLVQSGAEVKKPGASVKVSCKASGYTFREYYMHWVRQAPGQGLEWMGIINPSIGLTSYARKFQGRVTMTRDTSTSTVYMELSSLRSEDTAVYYCARGGRTTWIGAFDIWGQGTMVTVSS VL: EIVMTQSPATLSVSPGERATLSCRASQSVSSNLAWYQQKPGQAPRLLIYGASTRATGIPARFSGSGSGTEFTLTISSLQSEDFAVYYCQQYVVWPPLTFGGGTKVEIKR ?
**Result** -0.68

**Query** Need log10 Kd, item MAB5-IgG4 (antibody, V domains shown) VH: QLQLQESGPGLVKPSETLSLTCTVSGGSISSTSHYWGWIRQPPGKGLEWIGSIYYSGSTFYNPSLKGRVTISVDTSKNQFSLKLSSVTAADTAVYYCARDANYYGSAWAFDPWGQGTLVTVSS VL: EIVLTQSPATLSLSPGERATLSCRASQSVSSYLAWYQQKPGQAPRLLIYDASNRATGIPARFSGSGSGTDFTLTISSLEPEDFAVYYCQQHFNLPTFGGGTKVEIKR
**Result** -2.31

**Query** Name the recorded log10 Kd for MAB4-IgG4 (antibody, V domains shown) VH: QLQLQESGPGLVKPSETLSLTCTVSGGSISSTSHYWGWIRQPPGKGLEWIGSIYYSGSTFYNPSLKSRVTISVDTSKNQFSLKLSSVTAADTAVYYCARDANYYGGAWAFDPWGQGTLVTVSS VL: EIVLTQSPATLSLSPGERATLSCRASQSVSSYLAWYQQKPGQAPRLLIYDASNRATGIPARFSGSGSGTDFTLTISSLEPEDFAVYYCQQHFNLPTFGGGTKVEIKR .
**Result** -2.30

**Query** So what's the measured log10 Kd for this one? MAB1-IgG4 (antibody, V domains shown) VH: QLQLQESGPGLVKPSETLSLTCTVSGGSITSSSYYWGWIRQPPGKGLEWIGSIYYSGATFYNPSLKSRVTISVDTSKNQFSLKLSSVTAADTAVYYCARDANYYGSAWAFDPWGQGTLVTVSS VL: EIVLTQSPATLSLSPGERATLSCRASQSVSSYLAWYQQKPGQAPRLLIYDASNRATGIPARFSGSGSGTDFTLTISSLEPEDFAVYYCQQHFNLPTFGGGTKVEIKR
**Result** -1.27

**Query** GET /values?readout=log10 Kd&item= MAB2-IgG4 (antibody, V domains shown) VH: QLQLQESGPGLVKPSETLSLTCTVSGGSISSSKYYWGWIRQPPGKGLEWIGSIYYSGSTFYNPSLKSRVTISVDTSKNQFSLKLSSVTAADTAVYYCARDANYYGSAWAFDPWGQGTLVTVSS VL: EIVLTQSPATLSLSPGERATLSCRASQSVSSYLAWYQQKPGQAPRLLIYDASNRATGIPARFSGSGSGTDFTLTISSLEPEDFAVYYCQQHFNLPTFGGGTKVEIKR
**Result** -1.60

**Query** Item MAB20-IgG4 (antibody, V domains shown) VH: QVQLVQSGAEVKKPGASVKVSCKASGYTFTSHYMGWVRQAPGQGLEWVGIINPSMGATSYAQKFQGRVTMTRDTSTSTVYMELSSLRSEDTAVYYCARLHVSGSYYPAYLDYWGQGTMVTVSS VL: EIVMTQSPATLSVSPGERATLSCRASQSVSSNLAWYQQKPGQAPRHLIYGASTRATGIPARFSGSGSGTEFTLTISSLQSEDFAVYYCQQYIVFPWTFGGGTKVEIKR has what recorded log10 Kd?
**Result** -1.52

**Query** I would be grateful if you could share the reported log10 Kd for MAB14-IgG4 (antibody, V domains shown) VH: QVQLVQSGAEVKKPGASVKVSCKASGYTFPAYYMHWVRQAPGQGLEWMGIINPSLGLTSYAQKFQGRVTMTRDTSTSTVYMELSSLRSEDTAVYYCARGGRTTWIGAFDIWGQGTMVTVSS VL: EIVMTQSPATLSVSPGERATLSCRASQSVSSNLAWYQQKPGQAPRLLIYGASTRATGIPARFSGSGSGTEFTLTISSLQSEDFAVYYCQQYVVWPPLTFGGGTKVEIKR .
**Result** -0.42

**Query** Fill in the blank: the reported log10 Kd of MAB13-IgG4 (antibody, V domains shown) VH: QVQLVQSGAEVKKPGASVKVSCKASGYTFGNYYMHWVRQAPGQGLEWMGIINPSLGLTSYAQKFQGRVTMTRDTSTSTVYMELSSLRSEDTAVYYCARGGRTTWIGAFDIWGQGTMVTVSS VL: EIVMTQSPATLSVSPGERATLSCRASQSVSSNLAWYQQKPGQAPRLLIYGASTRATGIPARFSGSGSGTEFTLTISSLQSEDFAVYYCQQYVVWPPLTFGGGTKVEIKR is ____.
**Result** -0.40

**Query** Need log10 Kd, item MAB16-IgG4 (antibody, V domains shown) VH: QVQLVQSGAEVKKPGASVKVSCKASGYTFREYYMHWVRQAPGQGLEWMGIINPSIGLTSYARKFQGRVTMTRDTSTSTVYMELSSLRSEDTAVYYCARGGRTTWIGALDIWGQGTMVTVSS VL: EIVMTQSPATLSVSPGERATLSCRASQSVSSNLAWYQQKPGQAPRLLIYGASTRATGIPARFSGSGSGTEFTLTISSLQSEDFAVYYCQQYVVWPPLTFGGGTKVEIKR
**Result** -1.15
